System: Escherichia coli TOP10
Assay: shrunken log2 fold change of peptide-encoding DNA abundance (4.5 h post-induction vs induction); higher = less antimicrobial activity (less host growth inhibition)
Settings: time post-induction: 4.5 h; library: site-saturation at positions 5, 18, 19, 20
Reported shrunken log2 fold change values are given for each entry in this list.

# biopolymer.sequence, shrunken log2 fold change
data = [
    ("RRIRMRPPRLPRPRPRPWRKPRP", 0.506),
    ("RRIRKRPPRLPRPRPRPQWKPRP", 0.17),
    ("RRIRYRPPRLPRPRPRPHYCPRP", -0.403),
    ("RRIRQRPPRLPRPRPRPHGYPRP", -0.138),
    ("RRIRVRPPRLPRPRPRPWATPRP", -0.122),
    ("RRIRNRPPRLPRPRPRPEGKPRP", -0.0135),
    ("RRIRCRPPRLPRPRPRPVRVPRP", 0.272),
]

----------
System: Escherichia coli TOP10
Experiment: shrunken log2 fold change of peptide-encoding DNA abundance (4.5 h post-induction vs induction); higher = less antimicrobial activity (less host growth inhibition)
Settings: time post-induction: 4.5 h; library: site-saturation at positions 5, 18, 19, 20
property.name: shrunken log2 fold change

# biopolymer.sequence, property.name, recorded.measurement
measured = [
    ("RRIRGRPPRLPRPRPRPAECPRP", "shrunken log2 fold change", 0.196),
    ("RRIRARPPRLPRPRPRPQVDPRP", "shrunken log2 fold change", 0.04),
    ("RRIRIRPPRLPRPRPRPSDYPRP", "shrunken log2 fold change", -0.385),
    ("RRIRRRPPRLPRPRPRPVACPRP", "shrunken log2 fold change", 0.41),
    ("RRIRHRPPRLPRPRPRPHYQPRP", "shrunken log2 fold change", 0.0121),
    ("RRIRQRPPRLPRPRPRPKMQPRP", "shrunken log2 fold change", -0.134),
    ("RRIRYRPPRLPRPRPRPEYYPRP", "shrunken log2 fold change", -0.0128),
    ("RRIRVRPPRLPRPRPRPHDQPRP", "shrunken log2 fold change", 0.134),
    ("RRIRIRPPRLPRPRPRPTKYPRP", "shrunken log2 fold change", -0.681),
    ("RRIRHRPPRLPRPRPRPETPPRP", "shrunken log2 fold change", 0.561),
    ("RRIRSRPPRLPRPRPRPKIMPRP", "shrunken log2 fold change", -0.246),
    ("RRIRKRPPRLPRPRPRPVHYPRP", "shrunken log2 fold change", -0.0126),
    ("RRIRTRPPRLPRPRPRPAVKPRP", "shrunken log2 fold change", 0.106),
    ("RRIRSRPPRLPRPRPRPYQPPRP", "shrunken log2 fold change", -0.161),
    ("RRIRARPPRLPRPRPRPNSHPRP", "shrunken log2 fold change", -0.248),
    ("RRIRIRPPRLPRPRPRPANTPRP", "shrunken log2 fold change", 0.027),
    ("RRIRCRPPRLPRPRPRPVYRPRP", "shrunken log2 fold change", -0.445),
    ("RRIRNRPPRLPRPRPRPIQVPRP", "shrunken log2 fold change", -0.0304),
    ("RRIRFRPPRLPRPRPRPAAWPRP", "shrunken log2 fold change", 0.28),
    ("RRIRCRPPRLPRPRPRPTTMPRP", "shrunken log2 fold change", 0.722),
    ("RRIRYRPPRLPRPRPRPWANPRP", "shrunken log2 fold change", -0.176),
    ("RRIRARPPRLPRPRPRPEQMPRP", "shrunken log2 fold change", 1.06),
]

----------
Tested on: Escherichia coli TOP10
Assay: shrunken log2 fold change of peptide-encoding DNA abundance (4.5 h post-induction vs induction); higher = less antimicrobial activity (less host growth inhibition)
Conditions: time post-induction: 4.5 h; library: site-saturation at positions 5, 18, 19, 20

# biopolymer.sequence, shrunken log2 fold change
records = [
    ("RRIRSRPPRLPRPRPRPFEHPRP", -0.0715),
    ("RRIRGRPPRLPRPRPRPIIWPRP", 0.392),
    ("RRIRSRPPRLPRPRPRPPMAPRP", 0.169),
    ("RRIRNRPPRLPRPRPRPACSPRP", 0.0895),
    ("RRIRARPPRLPRPRPRPPVQPRP", 0.227),
    ("RRIRYRPPRLPRPRPRPHDAPRP", -0.27),
    ("RRIRYRPPRLPRPRPRPEVWPRP", 0.446),
    ("RRIRYRPPRLPRPRPRPVNGPRP", -0.338),
    ("RRIRGRPPRLPRPRPRPEYSPRP", 0.445),
    ("RRIRSRPPRLPRPRPRPIAEPRP", -0.0272),
    ("RRIRFRPPRLPRPRPRPIRPPRP", -0.009),
    ("RRIRFRPPRLPRPRPRPAGTPRP", -0.0142),
    ("RRIRPRPPRLPRPRPRPMTKPRP", 0.0497),
    ("RRIRERPPRLPRPRPRPYQGPRP", -0.199),
    ("RRIRVRPPRLPRPRPRPNASPRP", 0.147),
    ("RRIRRRPPRLPRPRPRPVELPRP", 0.0415),
    ("RRIRLRPPRLPRPRPRPQFSPRP", -0.907),
    ("RRIRGRPPRLPRPRPRPLTKPRP", 0.664),
    ("RRIRKRPPRLPRPRPRPNYMPRP", -0.117),
    ("RRIRARPPRLPRPRPRPQRCPRP", 0.256),
    ("RRIRRRPPRLPRPRPRPETPPRP", 1.12),
    ("RRIRDRPPRLPRPRPRPAAVPRP", 0.609),
    ("RRIRTRPPRLPRPRPRPAKKPRP", 0.00555),
    ("RRIRQRPPRLPRPRPRPMFLPRP", -0.38),
    ("RRIRHRPPRLPRPRPRPLVGPRP", 0.00867),
    ("RRIRGRPPRLPRPRPRPRDGPRP", 1.27),
    ("RRIRNRPPRLPRPRPRPEGHPRP", 0.00677),
    ("RRIRIRPPRLPRPRPRPTAYPRP", -0.425),
    ("RRIRNRPPRLPRPRPRPLKKPRP", -0.0418),
    ("RRIRWRPPRLPRPRPRPTGWPRP", 0.594),
    ("RRIRKRPPRLPRPRPRPNHGPRP", -0.0607),
    ("RRIRCRPPRLPRPRPRPPMWPRP", 0.557),
    ("RRIRQRPPRLPRPRPRPTYEPRP", -0.0761),
    ("RRIRMRPPRLPRPRPRPSDDPRP", 1.89),
    ("RRIRYRPPRLPRPRPRPNKNPRP", -0.935),
    ("RRIRIRPPRLPRPRPRPHKKPRP", -0.0912),
    ("RRIRLRPPRLPRPRPRPIIWPRP", -0.000825),
    ("RRIRWRPPRLPRPRPRPNCYPRP", -0.0773),
    ("RRIRRRPPRLPRPRPRPWSIPRP", 0.0651),
    ("RRIRLRPPRLPRPRPRPVIIPRP", -0.242),
    ("RRIRSRPPRLPRPRPRPYSWPRP", -0.244),
    ("RRIRARPPRLPRPRPRPVTWPRP", 0.291),
    ("RRIRMRPPRLPRPRPRPRLSPRP", 0.494),
    ("RRIRKRPPRLPRPRPRPPFWPRP", 1.2),
    ("RRIRHRPPRLPRPRPRPKHEPRP", -0.156),
    ("RRIRERPPRLPRPRPRPRHWPRP", 0.0819),
    ("RRIRPRPPRLPRPRPRPPGAPRP", 0.806),
]

----------
System: Escherichia coli TOP10;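 further: peptides expressed intracellularly from a pBAD plasmid library in pooled LB shake-flask culture, induced with 0.3% L-arabinose, DNA abundance read by NGS, three biological replicates, DESeq2 with apeglm shrinkage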
Experiment: shrunken log2 fold change of peptide-encoding DNA abundance (4.5 h post-induction vs induction); higher = less antimicrobial activity (less host growth inhibition)
Details: time post-induction: 4.5 h; library: site-saturation at positions 5, 18, 19, 20
Class Condition met: shrunken log2 fold change at least -0.01. Class Condition not met: shrunken log2 fold change below -0.01.

# biopolymer.sequence, target.of.assay, qualitative.label
measured = [
    ("RRIRFRPPRLPRPRPRPELIPRP", "Escherichia coli TOP10", "Condition not met"),
    ("RRIRCRPPRLPRPRPRPAETPRP", "Escherichia coli TOP10", "Condition not met"),
    ("RRIRLRPPRLPRPRPRPCHGPRP", "Escherichia coli TOP10", "Condition not met"),
    ("RRIRIRPPRLPRPRPRPDEIPRP", "Escherichia coli TOP10", "Condition met"),
    ("RRIRWRPPRLPRPRPRPHVSPRP", "Escherichia coli TOP10", "Condition not met"),
]
